These data points were gathered from ChEMBL document CHEMBL1201862.

# System: OVCAR-8
# test: NCI tumour cell line growth inhibition, 48 h
The source made the active and inactive calls. No stated cut-off is given here; in the data, active = GI50 up to about 1.1 µM and inactive = higher.
Outcome codes: active, inactive

{"compound": "O=C1C(C(O)(C(F)(F)Cl)C(F)(F)Cl)CCCC1C(O)(C(F)(F)Cl)C(F)(F)Cl (stereo not given)", "target_system": "OVCAR-8", "class_assignment": "inactive"}
{"compound": "Cc1nc(=O)n2c(c1C(=O)Nc1ccc(Cl)cc1)NCCC2", "target_system": "OVCAR-8", "class_assignment": "inactive"}
{"compound": "COc1cc(OC)cc(-c2cc(=O)c3c(OC)c(OC)c(OC)c(OC)c3o2)c1", "target_system": "OVCAR-8", "class_assignment": "inactive"}
{"compound": "O=C(CCc1nnc(S)[nH]1)Nc1cccc(C(F)(F)F)c1", "target_system": "OVCAR-8", "class_assignment": "inactive"}
{"compound": "CN(/N=C/c1cccc2cccnc12)c1ccc([N+](=O)[O-])cc1", "target_system": "OVCAR-8", "class_assignment": "inactive"}
{"compound": "CC(=O)OC(OC(C)=O)c1c2ccccc2cc2ccccc12", "target_system": "OVCAR-8", "class_assignment": "inactive"}
{"compound": "Cc1ccc(S(=O)(=O)N(CCNC(=O)c2cccc(O)c2O)c2cc3c4c(c2)Oc2cccc5c2C4(C)c2c(cccc2O3)O5)cc1", "target_system": "OVCAR-8", "class_assignment": "inactive"}
{"compound": "CCOC(=O)[C@@H]1ON2O[C@@H](OC3CCCCC3c3ccccc3)C[C@H]3OC(=O)[C@@H]1C32 (stereo not given in full)", "target_system": "OVCAR-8", "class_assignment": "inactive"}
{"compound": "Nc1nc(=O)c(/N=N/c2ccc([As](=O)(O)O)cc2)c(N)[nH]1", "target_system": "OVCAR-8", "class_assignment": "inactive"}
{"compound": "COc1cc(C2C3=C(COC3=O)Oc3cc4c(cc32)OCO4)ccc1O (stereo not given)", "target_system": "OVCAR-8", "class_assignment": "active"}
